Origin of measurements: ChEMBL document CHEMBL4411314

# measurement description: Volume of distribution at steady state in dog at 1 mg/kg, iv administered as single dose by LC/MS/MS analysis
# Assay type: ADME, organism-based, Canis lupus familiaris
# protocol conditions: in vivo, read-out: Vdss
reported metric: Vd (L/kg)

CCOC(=O)N1CC/C(=C\C#Cc2cccc(C)n2)C1; 3.1

----------
# measurement description: Intrinsic clearance in human liver microsomes at 0.2 mM after 30 mins in presence of NADPH by HPLC-MS/MS analysis
# Format: ADME, Microsome
# protocol conditions: read-out: CLH
reported metric: CLint scaled at 200 µM (mL/min/kg)

CCOC(=O)N1CC/C(=C\C#Cc2cccc(C)n2)C1; 0.39
